Recorded inhibition, one value per entry.
# study.system: Phosphatidylinositol 3,4,5-trisphosphate 5-phosphatase 2 (Homo sapiens) (UniProt O15357)
# test.protocol: Inhibition of recombinant human truncated SHIP2 using PI(3,4,5)P3diC8 at 500 uM after 30 mins by malachite green phosphatase release assay
Entry rule: numbers only, all in %.

Worked cases, answers included:
smiles.repr	study.system	unit.symbol	inhibition
OCc1cc(C23CC4CC(CC(C4)C2)C3)nc2c(Cl)cc(Cl)cc12	Phosphatidylinositol 3,4,5-trisphosphate 5-phosphatase 2 (Homo sapiens) (UniProt O15357)	%	14
O=C(O)c1cc(-c2ccccc2)nc2c1ccc1ccccc12	Phosphatidylinositol 3,4,5-trisphosphate 5-phosphatase 2 (Homo sapiens) (UniProt O15357)	%	0
O=C(O)c1cc(C23CC4CC(CC(C4)C2)C3)nc2c(Cl)cc(Cl)cc12	Phosphatidylinositol 3,4,5-trisphosphate 5-phosphatase 2 (Homo sapiens) (UniProt O15357)	%	0

Query :: Would you mind telling me what inhibition value was observed for "OCc1cc(-c2ccccc2)nc2c1ccc1ccccc12" ?
Result :: 18

Where these numbers come from: ChEMBL document CHEMBL3627712
